Assay: qHTS assay to test for compound auto fluorescence at 535 nm (green) in HEK293 cells (AID 720680); note: % is set by controls: 0 for no effect and ±100 for the full control effect
Settings: green autofluorescence 485/535 nm; series mostly up to 91.3 µM
Calls of active or inactive are those of the source. Calls come from the whole dose curve; as a rule, active = well fitted curve in the direction sought with a large enough effect in the repeat runs; inconclusive = weak or mixed curves; inactive = flat fitted curve, though single readings scatter.
quantity_name: fluorescence, % of fluorescein

Sample records with fluorescence, % of fluorescein:
COc1cc(N)c(Cl)cc1C(=O)NC1CCN(Cc2ccccc2)CC1	0.0161% [at 18.6 µM] (inactive)
CC(=O)OC1C2(C)CCC(C2)C1(C)C (configuration not stated)	inactive
CC(=O)Oc1cc(C(C)C)c(OCCN(C)C)cc1C	-0.013% [at 18.6 µM] (inactive)
CCCNC(C)(C)COC(=O)c1ccccc1	inactive
CN1CCN(c2c(F)cc3c(=O)c(C(=O)O)cn(CCF)c3c2F)CC1	inactive

Find the measured fluorescence, % of fluorescein of CCCOCCC and report it.
inactive

Find the measured fluorescence, % of fluorescein of CC1(C)C(=O)N(Cl)C(=O)N1Br and report it.
inactive

====

Assay: Caspase-3/7 induction in CHO-K1 cells by small molecules, qHTS assay (AID 1346980); note: % is set by controls: 0 for no effect and ±100 for the full control effect; nearly all actives have a fitted effect of over 15% in size
Conditions: CHO-K1 caspase-3/7 induction, Caspase-Glo luminescence, 17 h; series mostly up to 92.4 µM
Active and inactive are the calls of the source. The call rests on the fitted dose curve; in most records, active means well fitted activation curve with a large enough effect in the repeat runs; inconclusive means weak or mixed curves; inactive means flat fitted curve, though single readings scatter.
quantity_name: caspase-3/7 activation

NC/C=C/C(=O)O	inactive
Cc1ncc(CO)c(CN)c1O	inactive
CN1CCN(c2c(F)cc3c(=O)c(C(=O)O)cn(CCF)c3c2F)CC1	inactive
CCCCCOc1ccc(C2SC(=O)NC2=O)cc1OCC (stereo unspecified)	inactive
Cc1nnc(SCC2=C(C(=O)O)N3C(=O)[C@@H](NC(=O)Cn4cnnn4)[C@H]3SC2)s1	inactive

Find the measured caspase-3/7 activation of CCCCC(CC)COC(=O)COc1cc(Cl)c(Cl)cc1Cl (stereo unspecified) and report it.
inactive

====

Biological target: Bile acid receptor (Homo sapiens)
Experiment: qHTS assay to identify small molecule agonists of the farnesoid-X-receptor (FXR) signaling pathway (AID 743220); note: % is set by controls: 0 for no effect and ±100 for the full control effect
Details: HEK293T FXR-UAS-bla, beta-lactamase FRET ratio, 16 h; series mostly up to 62.6 µM
Inconclusive results are not listed. Active and inactive are the calls of the source. The call rests on the fitted dose curve; in most records, active means well fitted activation curve with a large enough effect in the signal ratio in the repeat runs (not every such curve was filed as active); inconclusive means weak or mixed curves, or effect the other way; inactive means flat fitted curve, though single readings scatter; the % refers to the signal ratio.
quantity_name: outcome

Sample records with outcome:
CN1CCN(c2c(F)cc3c(=O)c(C(=O)O)cn4c3c2SCC4)CC1	inactive
Cc1ccccc1C(=O)Nc1ccc(C(=O)N2CCCC(O)c3cc(Cl)ccc32)c(C)c1 (centres undefined)	inactive
CCCC(CCC)(C(=O)OCC)C(=O)OCC	inactive
CCOC(=O)C1CC(=O)C(=C(O)C2CC2)C(=O)C1 (centres undefined)	inactive
NCCC(O)(P(=O)(O)O)P(=O)(O)O	inactive

Find the measured outcome of CCCCCCCCc1ccc(S(=O)(=O)O)cc1 and report it.
inactive

Find the measured outcome of CCC1(C)NC(=O)NC1=O (centres undefined) and report it.
inactive

Find the measured outcome of CCN(CC)C(=O)N(CC)CC and report it.
inactive

Find the measured outcome of CCCCCCCCCC/C=C/C#N and report it.
inactive

Find the measured outcome of CCC(=O)Nc1ccc(O)cc1 and report it.
inactive

Find the measured outcome of CCN(CCCc1ccccc1)CCCc1ccccc1 and report it.
inactive

====

Assay: qHTS assay to identify small molecule agonists of H2AX - cell viability counter screen (AID 1224847);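 note: wild-type CHO-K1 cells; top concentration of the series differs between compounds; % is set by controls: 0 for no effect and ±100 for the full control effect; nearly all actives have a fitted effect of over 30% in size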
Conditions: CHO-K1 viability, CellTiter-Glo luminescence, 3 h; series mostly up to 154 µM
Records with an inconclusive call do not appear. Calls of active or inactive are those of the source. Calls come from the whole dose curve.
quantity_name: activity change, negative = cytotoxicity

CC(C)Nc1nc(N)nc(Cl)n1	inactive
CC(C)C(=O)OCC(C)(C)C(O)C(C)C (stereo not drawn)	inactive
CC(C)c1ccccc1	inactive
O=Cc1ccc(O)c(O)c1O	inactive
ClC(Cl)Cl	inactive

Find the measured activity change, negative = cytotoxicity of Cc1nnc(SCC2=C(C(=O)O)N3C(=O)[C@@H](NC(=O)Cn4cnnn4)[C@H]3SC2)s1 and report it.
inactive

Find the measured activity change, negative = cytotoxicity of NC(=O)NS(=O)(=O)c1ccc(Cl)cc1 and report it.
inactive

Find the measured activity change, negative = cytotoxicity of Cc1ncc(CO)c(CN)c1O and report it.
inactive

Where do these numbers come from? They come from PubChem BioAssay (Tox21).
